tgt: LasR transcriptional activator (Pseudomonas aeruginosa)
Construct: expressed in transfected cells; host or cells: Pseudomonas putida F117 carrying plasmid pKRC12 (lasR, PlasB-gfp)
experiment-notes: P. putida F117 pKRC12 lasB-GFP reporter assay (secondary screens)
Type: cell-based
assay-conditions: compounds 10 μM; 3oxoC12HSL 50 nM; relative fluorescence (fluorescence divided by absorbance at 600 nm) as percent of AHL induced control
Lab note: anything with % Activity of AHL Standard, 3 oxo C12HSL below 70% is marked t; values at 70% or higher are marked f.

NC(=O)SCC(=O)Nc1ccccc1O :: f
Cc1ccc(NC(=O)CSC(N)=O)c(C)c1 :: f

Below: the item to evaluate.
Inquiry: Confirm or reject: % Activity of AHL Standard, 3 oxo C12HSL of NC(=O)SCC(=O)Nc1ccccc1Cl lies strictly below 70%
Reply text: t

----------
tgt: LasR transcriptional activator (Pseudomonas aeruginosa, UniProt P25084)
Construct: expressed in transfected cells; host or cells: Pseudomonas putida F117 carrying plasmid pKRC12 (lasR, PlasB-gfp)
Sequence (P25084 whole entry): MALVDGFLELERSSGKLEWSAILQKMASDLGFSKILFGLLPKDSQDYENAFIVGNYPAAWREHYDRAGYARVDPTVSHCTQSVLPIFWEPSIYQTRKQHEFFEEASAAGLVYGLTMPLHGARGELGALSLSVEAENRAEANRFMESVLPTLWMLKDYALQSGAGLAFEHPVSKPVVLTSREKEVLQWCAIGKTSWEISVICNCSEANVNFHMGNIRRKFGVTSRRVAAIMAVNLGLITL
experiment-notes: Screen signal of thiocarbamate compounds (Table 1), GFP AHL sensor strain with LasR
Type: cell-based
Hi, to clarify the labels: true covers Signal 671/672 from 200000 upward, false covers anything below 200000.

Example entries and their recorded answers appear below.
CCOC(=O)c1ccccc1NC(=O)CSC(N)=O [Compound 5952120] :: false
COC(=O)c1ccc(NC(=O)CSC(N)=O)cc1 [Compound 5952057] :: false
NC(=O)SCC(=O)Nc1ccc(I)cc1 [Compound 5955203] :: true
NC(=O)SCC(=O)Nc1ccccc1Cl [Compound 5956488] :: false
COc1cccc(NC(=O)CSC(N)=O)c1 [Compound 5956868] :: true

Inquiry: Could you please find out whether NC(=O)SCC(=O)Nc1ccccc1Br [Compound 5949674] has Signal 671/672 that meets 200000 or exceeds it?
Reply text: false

Inquiry: Could you please find out whether Cc1ccc(NC(=O)CSC(N)=O)cc1Cl [Compound 5952472] has Signal 671/672 that meets 200000 or exceeds it?
Reply text: false

Inquiry: Could you please find out whether Cc1cccc(NC(=O)CSC(N)=O)c1 [Compound 5955821] has Signal 671/672 that meets 200000 or exceeds it?
Reply text: true

Inquiry: Could you please find out whether NC(=O)SCC(=O)Nc1ccc(Cl)c(Cl)c1 [Compound 5949527] has Signal 671/672 that meets 200000 or exceeds it?
Reply text: true

Inquiry: Could you please find out whether Cc1ccc(Cl)cc1NC(=O)CSC(N)=O [Compound 5948544] has Signal 671/672 that meets 200000 or exceeds it?
Reply text: false

----------
tgt: LasR transcriptional activator (Pseudomonas aeruginosa, UniProt P25084)
Construct: expressed in transfected cells; host or cells: Pseudomonas putida F117 carrying plasmid pKRC12 (lasR, PlasB-gfp)
experiment-notes: P. putida F117 pKRC12 lasB-GFP reporter assay (secondary screens)
Format: cell-based
assay-conditions: compounds 10 μM; 3oxoC10HSL 100 nM; relative fluorescence (fluorescence divided by absorbance at 600 nm) as percent of AHL induced control
Procedure: Additional screens were performed similar to screen described in the initial screen, except assays were performed in 96-well microtiter plates at a total volume of 100 μl. […] Fluorescence was measured at regular intervals after 3 hours using the Wallac Victor2 plate reader with an excitation wavelength of 485 nm and emission detection at 515 nm. […] Effects on growth of the antagonists were determined by measuring the optical density at 600 nm of growing bacterial cultures P. putida F 117 pKRC 12. […]
Hi, to clarify the labels: 1 (yes) covers % Activity of AHL Standard, 3 oxo C10HSL from 40% upward, 0 (no) covers anything below 40%.

Example entries and their recorded answers appear below.
COc1cccc(NC(=O)CSC(N)=O)c1 :: 0 (no)
NC(=O)SCC(=O)Nc1cccc(I)c1 :: 1 (yes)
COC(=O)c1ccccc1NC(=O)CSC(N)=O :: 0 (no)

Inquiry: Could you please find out whether Cc1ccc(NC(=O)CSC(N)=O)cc1Cl has % Activity of AHL Standard, 3 oxo C10HSL that meets 40% or exceeds it?
Reply text: 0 (no)

Inquiry: Could you please find out whether NC(=O)SCC(=O)Nc1cccc(O)c1 has % Activity of AHL Standard, 3 oxo C10HSL that meets 40% or exceeds it?
Reply text: 1 (yes)

Inquiry: Could you please find out whether Cc1cccc(NC(=O)CSC(N)=O)c1 has % Activity of AHL Standard, 3 oxo C10HSL that meets 40% or exceeds it?
Reply text: 1 (yes)

Inquiry: Could you please find out whether Cc1cccc(NC(=O)CSC(N)=O)c1C has % Activity of AHL Standard, 3 oxo C10HSL that meets 40% or exceeds it?
Reply text: 0 (no)

Inquiry: Could you please find out whether NC(=O)SCC(=O)Nc1ccccc1Cl has % Activity of AHL Standard, 3 oxo C10HSL that meets 40% or exceeds it?
Reply text: 0 (no)

Inquiry: Could you please find out whether CC(=O)c1ccc(NC(=O)CSC(N)=O)cc1 has % Activity of AHL Standard, 3 oxo C10HSL that meets 40% or exceeds it?
Reply text: 1 (yes)

Inquiry: Could you please find out whether COc1ccccc1NC(=O)CSC(N)=O has % Activity of AHL Standard, 3 oxo C10HSL that meets 40% or exceeds it?
Reply text: 1 (yes)

----------
tgt: LasR transcriptional activator (Pseudomonas aeruginosa)
Construct: expressed in transfected cells; host or cells: Pseudomonas putida F117 carrying plasmid pKRC12 (lasR, PlasB-gfp)
experiment-notes: P. putida F117 pKRC12 lasB-GFP reporter assay (secondary screens)
Format: cell-based
assay-conditions: compounds 10 μM; 3oxoC12HSL 50 nM; relative fluorescence (fluorescence divided by absorbance at 600 nm) as percent of AHL induced control
Protocol: Additional screens were performed similar to screen described in the initial screen, except assays were performed in 96-well microtiter plates at a total volume of 100 μl. […] Fluorescence was measured at regular intervals after 3 hours using the Wallac Victor2 plate reader with an excitation wavelength of 485 nm and emission detection at 515 nm. […] Effects on growth of the antagonists were determined by measuring the optical density at 600 nm of growing bacterial cultures P. putida F 117 pKRC 12. […]
# % Activity of AHL Standard, 3 oxo C12HSL values compiled below
Response body: numeric value in %, unit text excluded.

Answered examples (2):
NC(=O)SCC(=O)Nc1ccc(Br)cc1 :: 70.10
COc1ccccc1NC(=O)CSC(N)=O :: 68.60

Let's switch to this compound now.
Inquiry: Record COc1ccc(NC(=O)CSC(N)=O)c(OC)c1 : what is its % Activity of AHL Standard, 3 oxo C12HSL with LasR transcriptional activator (Pseudomonas aeruginosa)?
Reply text: 70.90

----------
tgt: LasR transcriptional activator (Pseudomonas aeruginosa)
Construct: expressed in transfected cells; host or cells: Pseudomonas putida F117 carrying plasmid pKRC12 (lasR, PlasB-gfp)
experiment-notes: P. putida F117 pKRC12 lasB-GFP reporter assay (secondary screens)
Format: cell-based
assay-conditions: compounds 10 μM; 3oxoC10HSL 100 nM; relative fluorescence (fluorescence divided by absorbance at 600 nm) as percent of AHL induced control
Description: Additional screens were performed similar to screen described in the initial screen, except assays were performed in 96-well microtiter plates at a total volume of 100 μl. […] Fluorescence was measured at regular intervals after 3 hours using the Wallac Victor2 plate reader with an excitation wavelength of 485 nm and emission detection at 515 nm. […] Effects on growth of the antagonists were determined by measuring the optical density at 600 nm of growing bacterial cultures P. putida F 117 pKRC 12. […]
measured-parameter: % Activity of AHL Standard, 3 oxo C10HSL (%)
Response body: numeric value in %, unit text excluded.

Inquiry: Item NC(=O)SCC(=O)Nc1ccc(Br)cc1 has what recorded % Activity of AHL Standard, 3 oxo C10HSL?
Reply text: 39.00

Inquiry: Item COc1ccc(NC(=O)CSC(N)=O)c(OC)c1 has what recorded % Activity of AHL Standard, 3 oxo C10HSL?
Reply text: 35.00

Inquiry: Item NC(=O)SCC(=O)Nc1ccccc1O has what recorded % Activity of AHL Standard, 3 oxo C10HSL?
Reply text: 38.60

Inquiry: Item NC(=O)SCC(=O)Nc1ccccc1Br has what recorded % Activity of AHL Standard, 3 oxo C10HSL?
Reply text: 36.60

Where these numbers come from: patent US8063108B2
